// reported pEC50 per item
system.tested: human TLR7 (Homo sapiens, UniProt Q9NYK1)
Construct: host or cells: HEK293 (HEK-Blue hTLR7)
Sequence (Q9NYK1 27-1049): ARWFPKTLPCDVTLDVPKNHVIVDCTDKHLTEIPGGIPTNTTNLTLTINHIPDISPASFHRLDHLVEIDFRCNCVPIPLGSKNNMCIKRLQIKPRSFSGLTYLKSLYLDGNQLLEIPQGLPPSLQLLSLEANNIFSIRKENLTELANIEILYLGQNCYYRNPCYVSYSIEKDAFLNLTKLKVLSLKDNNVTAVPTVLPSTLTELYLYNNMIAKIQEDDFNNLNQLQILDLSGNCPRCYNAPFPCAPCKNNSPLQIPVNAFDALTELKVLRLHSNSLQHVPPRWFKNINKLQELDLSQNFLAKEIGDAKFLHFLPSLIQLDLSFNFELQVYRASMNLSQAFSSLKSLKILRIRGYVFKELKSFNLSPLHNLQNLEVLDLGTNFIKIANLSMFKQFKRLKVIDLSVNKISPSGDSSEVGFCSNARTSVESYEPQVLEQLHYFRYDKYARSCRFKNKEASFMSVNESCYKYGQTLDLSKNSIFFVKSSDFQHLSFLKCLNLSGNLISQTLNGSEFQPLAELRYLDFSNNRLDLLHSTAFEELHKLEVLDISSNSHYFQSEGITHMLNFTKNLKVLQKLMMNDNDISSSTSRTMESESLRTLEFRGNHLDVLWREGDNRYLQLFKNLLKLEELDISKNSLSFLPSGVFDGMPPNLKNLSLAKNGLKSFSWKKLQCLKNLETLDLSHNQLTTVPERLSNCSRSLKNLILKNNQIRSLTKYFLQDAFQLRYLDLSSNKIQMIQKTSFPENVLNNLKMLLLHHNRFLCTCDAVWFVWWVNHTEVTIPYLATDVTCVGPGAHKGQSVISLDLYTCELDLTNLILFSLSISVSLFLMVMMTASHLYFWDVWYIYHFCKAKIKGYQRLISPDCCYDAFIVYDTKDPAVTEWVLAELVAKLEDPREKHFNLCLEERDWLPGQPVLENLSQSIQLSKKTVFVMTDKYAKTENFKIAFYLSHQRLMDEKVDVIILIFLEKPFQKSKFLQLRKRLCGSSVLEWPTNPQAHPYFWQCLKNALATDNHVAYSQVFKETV
test.description: HEK293-Blue hTLR7 Reporter Assay (QUANTI-BLUE, SEAP readout)
Format: cell-based
conditions.used: HEK-Blue-hTLR7 cells, 24 hrs treatment, Table 1, B1-B232
The quantity pEC50 is defined as the negative base-10 logarithm of the molar concentration.

These solved cases illustrate the format of a correct answer.
CCC[C@@H](C)Oc1nc(N)c2ncc(Cc3cnc(N4CCC(CNC)CC4)c(C)c3)n2n1 (single isomer, unassigned) | 7.22
Cc1cc(Cc2cnc3c(N)nc(OCCC(C)C)nn23)cnc1N1CCNCC1 | 6.30
CCCC(CCC)Nc1nc(N)c2ncc(Cc3cnc(N4CCN(C(=O)CN(C)C)CC4)c(C)c3)n2n1 | 8.55

Attention now shifts to the item below.
Look up and report measured pEC50 for this entry: CCC(C)Oc1nc(N)c2ncc(Cc3cnc(N4CCNCC4)c(C)c3)n2n1 (stereo not shown)
7.43

----------
system.tested: human TLR7 (Homo sapiens, UniProt Q9NYK1)
Construct: host or cells: HEK293 (HEK-Blue hTLR7)
test.description: HEK293-Blue hTLR7 Reporter Assay (QUANTI-BLUE, SEAP readout)
Format: cell-based
conditions.used: HEK-Blue-hTLR7 cells, 24 hrs treatment, Table 1, B1-B232
// reported pEC50 per item
The quantity pEC50 is defined as the negative base-10 logarithm of the molar concentration.

These solved cases illustrate the format of a correct answer.
CCCCNc1nc(N)c2ncc(Cc3cnc(N4CCC(N)CC4)c(C)c3)n2n1 | 7.21
CCCCOc1nc(N)c2ncc(Cc3cnc(N4CCC(CCN(C)C)CC4)c(C)c3)n2n1 | 7.37
CCC(CC)Oc1nc(N)c2ncc(Cc3cnc(N4CCNCC4)c(C)c3)n2n1 | 8.10

Look up and report measured pEC50 for this entry: `CCCCOc1nc(N)c2ncc(Cc3cnc(N4CCN(C(C)=O)CC4)c(C)c3)n2n1`
5.42

Look up and report measured pEC50 for this entry: CCCC(C)Nc1nc(N)c2ncc(Cc3cnc(N4CCN(C(=O)CN(C)C)CC4)c(C)c3)n2n1 (centres unmarked)
8.52

Look up and report measured pEC50 for this entry: `CCCCOc1nc(N)c2ncc(Cc3cnc(N4CCN(C(=O)[C@@H](N)CC(C)C)CC4)c(C)c3)n2n1`
6.50

Look up and report measured pEC50 for this entry: `CCC[C@H](C)Oc1nc(N)c2ncc(Cc3cnc(N4CCN(C(=O)CNCC(C)C)CC4)c(C)c3)n2n1`
8.21

Look up and report measured pEC50 for this entry: `Cc1cc(Cc2cnc3c(N)nc(OC4CCCC4)nn23)cnc1N1CCNCC1`
6.59

----------
// reported EC50 per item
system.tested: human TLR7 (Homo sapiens)
Construct: host or cells: HEK293 (HEK-Blue hTLR7)
test.description: HEK293-Blue hTLR7 Reporter Assay (QUANTI-BLUE, SEAP readout)
Type: cell-based
conditions.used: HEK-Blue-hTLR7 cells, 24 hrs treatment, Table 1, B1-B232
Field: numeric (µM). Do not append units.

These solved cases illustrate the format of a correct answer.
CCCC(CCO)Oc1nc(N)c2ncc(Cc3cnc(N4CCC(CNC)CC4)c(C)c3)n2n1 (centres unmarked) | 0.014
CCCCOc1nc(N)c2ncc(Cc3ccc(N4CCNCC4)c(C(C)C)c3)n2n1 | 2.36
CCC[C@H](C)Oc1nc(N)c2ncc(Cc3cnc(N4CCNCC4)c(C)c3)n2n1 | 0.0037
CCCCc1nc(N)c2ncc(Cc3cnc(N4CCNCC4)c(C)c3)n2n1 | 0.154
CCCC(CC)Oc1nc(N)c2ncc(Cc3cnc(N4CCC(CN(C)C)CC4)c(C)c3)n2n1 (centres unmarked) | 0.0041
CCCCOc1nc(N)c2ncc(Cc3cnc(N4CCC(OC)CC4)c(C)c3)n2n1 | 7.96
CCCCOc1nc(N)c2ncc(Cc3cnc(N4CCN(CCNC)CC4)c(C)c3)n2n1 | 0.121

Attention now shifts to the item below.
Look up and report measured EC50 for this entry: `CCCCOc1nc(N)c2ncc(Cc3cnc(N4CCNC[C@H]4C)c(C)c3)n2n1`
0.073

----------
system.tested: human TLR7 (Homo sapiens, UniProt Q9NYK1)
Construct: host or cells: HEK293 (HEK-Blue hTLR7)
test.description: HEK293-Blue hTLR7 Reporter Assay (QUANTI-BLUE, SEAP readout)
Format: cell-based
conditions.used: HEK-Blue-hTLR7 cells, 24 hrs treatment, Table 1, B1-B232
value.type: EC50 (nM)
Field: numeric (nM). Do not append units.

CCCCOc1nc(N)c2ncc(Cc3cnc(N4CCNCC4)c(C)c3)n2n1 | 136
CCCC(C)Nc1nc(N)c2ncc(Cc3cnc(N4CCC(N(C)C)CC4)c(C)c3)n2n1 (centres unmarked) | 5.5
CCCCOc1nc(N)c2ncc(Cc3ccc(N4CCNCC4)nc3)n2n1 | 421
CCCCOc1nc(N)c2ncc(Cc3cnc(N4C[C@H]5C[C@@H]4CN5)c(C)c3)n2n1 | 505
CCCC(C)Oc1nc(N)c2ncc(Cc3cnc(N4CCC(CNC)CC4)c(C)c3)n2n1 (centres unmarked) | 6.5
CCCC(CCC)Oc1nc(N)c2ncc(Cc3cnc(N4CCC(CN(C)C)CC4)c(C)c3)n2n1 | 4.1

Look up and report measured EC50 for this entry: `CCCCOc1nc(N)c2ncc(Cc3ccc(C4CCNCC4)cn3)n2n1`
509

Look up and report measured EC50 for this entry: `CCCCNc1nc(N)c2ncc(Cc3ccc(C4CCNCC4)cc3)n2n1`
171

Look up and report measured EC50 for this entry: `CCC(CC)Nc1nc(N)c2ncc(Cc3cnc(N4CCC(N(C)C)CC4)c(C)c3)n2n1`
9.2

----------
system.tested: human TLR7 (Homo sapiens)
Construct: host or cells: HEK293 (HEK-Blue hTLR7)
test.description: HEK293-Blue hTLR7 Reporter Assay (QUANTI-BLUE, SEAP readout)
Format: cell-based
conditions.used: HEK-Blue-hTLR7 cells, 24 hrs treatment, Table 1, B1-B232
// reported pEC50 per item
The quantity pEC50 is defined as the negative base-10 logarithm of the molar concentration.

CCCCOc1nc(N)c2ncc(Cc3ccc(C4CCNCC4)nc3C)n2n1 | 6.80
CCCCOc1nc(N)c2ncc(Cc3ccc(N4CC(C)NC(C)C4)c(C)c3)n2n1 (stereo not shown) | 6.18
Cc1cc(Cc2cnc3c(N)nc(OC4CCCCC4)nn23)cnc1N1CCNCC1 | 6.30
CCC[C@H](C)Oc1nc(N)c2ncc(Cc3cnc(N4CCC(CNC)CC4)c(C)c3)n2n1 (single isomer, unassigned) | 8.41
CCCNc1nc(N)c2ncc(Cc3cnc(N4CCNCC4)c(C)c3)n2n1 | 7.06

Look up and report measured pEC50 for this entry: CCCC(C)Oc1nc(N)c2ncc(Cc3cnc(N4CCNCC4)c(C)c3)n2n1 (stereo not shown)
7.59

Look up and report measured pEC50 for this entry: `CCC[C@@H](C)Oc1nc(N)c2ncc(Cc3cnc(N4CCC(CN(C)C)CC4)c(C)c3)n2n1`
7.39

Look up and report measured pEC50 for this entry: `CCCCOc1nc(N)c2ncc(Cc3cnc(N4CC5(CCNCC5)C4)c(C)c3)n2n1`
6.33

Look up and report measured pEC50 for this entry: CCCC(CC)Oc1nc(N)c2ncc(Cc3cnc(N4CCN(C(=O)CN(C)C)CC4)c(C)c3)n2n1 (stereo not shown)
8.54

Look up and report measured pEC50 for this entry: `CCCCOc1nc(N)c2ncc(Cc3cnc(N4CCC(CN(C)C)CC4)c(C)c3)n2n1`
7.70

----------
system.tested: human TLR7 (Homo sapiens, UniProt Q9NYK1)
Construct: host or cells: HEK293 (HEK-Blue hTLR7)
test.description: HEK293-Blue hTLR7 Reporter Assay (QUANTI-BLUE, SEAP readout)
Type: cell-based
conditions.used: HEK-Blue-hTLR7 cells, 24 hrs treatment, Table 1, B1-B232
// reported pEC50 per item
The quantity pEC50 is defined as the negative base-10 logarithm of the molar concentration.

These solved cases illustrate the format of a correct answer.
CCC[C@@H](C)Oc1nc(N)c2ncc(Cc3cnc(N4CCNCC4)c(C)c3)n2n1 | 7.21
CCCCOc1nc(N)c2ncc(Cc3cnc(N4CCN(C(=O)[C@@H]5CCCN5)CC4)c(C)c3)n2n1 | 6.97
CCCCOc1nc(N)c2ncc(Cc3cnc(N4CCC(N(C)C)C4)c(C)c3)n2n1 (stereo not shown) | 6.36
CCC[C@H](CC)Oc1nc(N)c2ncc(Cc3cnc(N4CCN(C(=O)CNC)CC4)c(C)c3)n2n1 | 8.32

Look up and report measured pEC50 for this entry: `CCCCOc1nc(N)c2ncc(Cc3cnc(N4CCN(C(=O)CCCCN(C)C)CC4)c(C)c3)n2n1`
6.82

----------
system.tested: human TLR7 (Homo sapiens)
Construct: host or cells: HEK293 (HEK-Blue hTLR7)
test.description: HEK293-Blue hTLR7 Reporter Assay (QUANTI-BLUE, SEAP readout)
Type: cell-based
conditions.used: HEK-Blue-hTLR7 cells, 24 hrs treatment, Table 1, B1-B232
pEC50: −log10 of the molar value.
value.type: pEC50

Cc1cc(Cc2cnc3c(N)nc(OCCc4ccccc4)nn23)cnc1N1CCNCC1 | < 5.00
COCCOCCOc1nc(N)c2ncc(Cc3cnc(N4CCNCC4)c(C)c3)n2n1 | < 5.00

Attention now shifts to the item below.
Look up and report measured pEC50 for this entry: `COc1nc(N)c2ncc(Cc3cnc(N4CCNCC4)c(C)c3)n2n1`
< 5.00
